Origin of measurements: the supplement of paper PMC10201428

B1: library; a variant is named by its letters at N, in order (parent)
chain: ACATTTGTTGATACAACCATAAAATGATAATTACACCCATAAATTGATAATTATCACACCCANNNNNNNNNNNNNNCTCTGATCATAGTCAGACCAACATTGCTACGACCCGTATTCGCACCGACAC

- Variants of: B1
- Experimental Protocol: relative integration efficiency (T-RL orientation) vs wild-type transposon end (log2 (normalized fold change)); transposon end mutated: right end (5 bp flank + 75 bp right end); higher = more efficient transposition
- Cond: with VchCAST RNA-guided transposition machinery (E. coli BL21(DE3) host, lacZ target)
Answer No if relative integration efficiency (log2) is under -0.6, and Yes if it is -0.6 or more.

Solved cases (5 shown):
Variant Notation	Group Label
TAAATTGATATTGC A23G	Yes
TAAATTTATATTGC	Yes
TACCTTGATATTGC	Yes
TAAATTGATATTGC C60T	Yes
TAAATTGATATTGC G46C	No

Request: Entry TAAATTGATATTGC G26C : is its relative integration efficiency (log2) no less than -0.6?
Result: No

Request: Entry TAAATTGATATTGC C60A : is its relative integration efficiency (log2) no less than -0.6?
Result: Yes

Request: Entry ATTTAACTATAACG T44G : is its relative integration efficiency (log2) no less than -0.6?
Result: No

Request: Entry TAAATTGATATTGC A15T : is its relative integration efficiency (log2) no less than -0.6?
Result: Yes

Request: Entry TAAATTGATATTGC T6C : is its relative integration efficiency (log2) no less than -0.6?
Result: No

Request: Entry TAAATTGATATACG C77G : is its relative integration efficiency (log2) no less than -0.6?
Result: Yes

Request: Entry TAAATTGATATTGC T4A : is its relative integration efficiency (log2) no less than -0.6?
Result: Yes

Request: Entry TAAATTGATATTGC A3C : is its relative integration efficiency (log2) no less than -0.6?
Result: Yes

Request: Entry ATTTAACTATAACG A29T : is its relative integration efficiency (log2) no less than -0.6?
Result: No

Request: Entry TAAATTTCTATTGC : is its relative integration efficiency (log2) no less than -0.6?
Result: Yes

Request: Entry GCCATTGATATTGC A62C : is its relative integration efficiency (log2) no less than -0.6?
Result: No
